- test.description: Cytotoxicity against human HepG2(2.2.15) cells by neutral red dye uptake assay
- Assay type: functional
property.name: log10 CC50 (log10 of the value in µM)
Use the decimal logarithm of CC50 (µM).

# count of solved cases: 3
* CC(C)=CCC[C@]1(C)C=Cc2c(ccc3c2C(=O)C(O)=C(C2=C(C4=C(O)C(=O)c5c(ccc6c5C=C[C@@](C)(CCC=C(C)C)O6)C4=O)C(=O)c4ccccc4C2=O)C3=O)O1 | 1.15
* Nc1nc(O)c2ncn(CCC(CO)CO)c2n1 [PENCICLOVIR] | 2.74
* CC1(C)CCc2c(ccc3c2C(=O)C(O)=C(C2=C(C4=C(O)C(=O)c5c(ccc6c5CCC(C)(C)O6)C4=O)C(=O)c4ccccc4C2=O)C3=O)O1 | 3.16

Challenge: Name the recorded log10 CC50 for Nc1ccn([C@@H]2CS[C@H](CO)O2)c(=O)n1 [LAMIVUDINE] .
Response given: 3.33

Challenge: Name the recorded log10 CC50 for CC1(C)C=Cc2c(ccc3c2C(=O)C(O)=C(C2=C(C4=C(O)C(=O)c5c(ccc6c5C=CC(C)(C)O6)C4=O)C(=O)c4c(ccc5c4C=CC(C)(C)O5)C2=O)C3=O)O1 .
Response given: 1.65

----------
- test.description: Cytotoxicity against human HepG2(2.2.15) cells by neutral red dye uptake assay
- Assay type: functional
property.name: log10(CC50) (log10 of the value in µM)
Use the decimal logarithm of CC50 (µM).

- CC1(C)C=Cc2c(ccc3c2C(=O)C(O)=C(C2=C(C4=C(O)C(=O)c5c(ccc6c5C=CC(C)(C)O6)C4=O)C(=O)c4ccccc4C2=O)C3=O)O1: 3.14
- COc1ccc2c(c1)C(=O)C(C1=C(O)C(=O)c3c(ccc4c3C=CC(C)(C)O4)C1=O)=C(C1=C(O)C(=O)c3c(ccc4c3C=CC(C)(C)O4)C1=O)C2=O: 2.67
- COc1ccc2c(c1)C(=O)C(C1=C(C3=C(O)C(=O)c4ccc(OC)cc4C3=O)C(=O)c3ccccc3C1=O)=C(O)C2=O: 2.47
- CC1(C)CCc2c(ccc3c2C(=O)C(O)=C(C2=C(C4=C(O)C(=O)c5c(ccc6c5CCC(C)(C)O6)C4=O)C(=O)c4c(ccc5c4CCC(C)(C)O5)C2=O)C3=O)O1: 1.64
- COc1ccc2c(c1)C(=O)C(O)=C(C1=C(C3=C(O)C(=O)c4cc(OC)ccc4C3=O)C(=O)c3ccccc3C1=O)C2=O: 1.76

Moving on to another compound below.
Challenge: Name the recorded log10(CC50) for CC1(C)C=Cc2c(ccc3c2C(=O)C(O)=C(C2=C(C4=C(O)C(=O)c5c(ccc6c5C=CC(C)(C)O6)C4=O)C(=O)c4c(ccc5c4CCC(C)(C)O5)C2=O)C3=O)O1 .
Response given: 2.45
